- system: Recombinant human his-tagged IGF 1R extracellular domain protein (human) (UniProt P08069)
- experimental_protocol: SPR, captured IgG, IGF-1R ECD-his analyte, dissociation pH 7.4
pKd: −log10 of the molar value.
Please mark y if the recorded pKd is equal to or greater than 9, and n if it falls below.

[[record]]
binder = "VRDN-02535 (antibody, V domains shown) VH: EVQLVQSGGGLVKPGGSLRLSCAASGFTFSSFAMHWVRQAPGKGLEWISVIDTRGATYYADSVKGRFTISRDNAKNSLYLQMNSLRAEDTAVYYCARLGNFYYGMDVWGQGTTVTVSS VL: EIVLTQSPGTLSVSPGERATLSCRASQSIGHSLHWYQQKPGQAPRLLIKYASQSLSGIPDRFSGSGSGTDFTLTISRLEPEDFAVYYCHQSSRLPHTFGQGTKVEIK"
label = "y"

[[record]]
binder = "VRDN-02543 (antibody, V domains shown) VH: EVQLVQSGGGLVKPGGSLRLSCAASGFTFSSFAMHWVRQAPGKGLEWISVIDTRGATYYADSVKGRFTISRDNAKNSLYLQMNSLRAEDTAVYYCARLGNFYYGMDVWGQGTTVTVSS VL: EIVLTQSPGTLSVSPGERATLSCRASQSIGSSLHWYQQKPGQAPRLLIKYASQHLSGIPDRFSGSGSGTDFTLTISRLEPEDFAVYYCHQSSRLPHTFGQGTKVEIK"
label = "y"

[[record]]
binder = "VRDN-02507 (antibody, V domains shown) VH: EVQLVQSGGGLVKPGGSLRLSCAASGFTFSSHAMHWVRQAPGKGLEWISVIDTRGATYYADSVKGRFTISRDNAKNSLYLQMNSLRAEDTAVYYCARLGNFYYGMDVWGQGTTVTVSS VL: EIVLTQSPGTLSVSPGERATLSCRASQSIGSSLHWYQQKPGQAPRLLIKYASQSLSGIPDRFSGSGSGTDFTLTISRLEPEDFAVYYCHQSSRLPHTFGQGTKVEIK"
label = "y"

[[record]]
binder = "VRDN-02519 (antibody, V domains shown) VH: EVQLVQSGGGLVKPGGSLRLSCAASGFTFSSFAMHWVRQAPGKGLEWISVIDTRGATYYADSVKGRFTISRDNAKNSLYLQMNSLRAEDTAVYYCARLHNFYYGMDVWGQGTTVTVSS VL: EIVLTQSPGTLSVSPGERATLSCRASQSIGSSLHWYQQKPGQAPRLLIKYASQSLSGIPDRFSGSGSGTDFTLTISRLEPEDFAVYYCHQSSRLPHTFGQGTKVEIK"
label = "n"

[[record]]
binder = "VRDN-02540 (antibody, V domains shown) VH: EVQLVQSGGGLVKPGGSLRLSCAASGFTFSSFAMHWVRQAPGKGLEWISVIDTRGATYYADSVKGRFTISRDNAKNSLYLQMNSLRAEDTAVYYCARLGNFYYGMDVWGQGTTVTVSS VL: EIVLTQSPGTLSVSPGERATLSCRASQSIGSSLHWYQQKPGQAPRLLIKYHSQSLSGIPDRFSGSGSGTDFTLTISRLEPEDFAVYYCHQSSRLPHTFGQGTKVEIK"
label = "y"

[[record]]
binder = "VRDN-02516 (antibody, V domains shown) VH: EVQLVQSGGGLVKPGGSLRLSCAASGFTFSSFAMHWVRQAPGKGLEWISVIDTRGATYYADSVKGRFTISRDNAKNSLYLQMNSLRAEDTAVYYCHRLGNFYYGMDVWGQGTTVTVSS VL: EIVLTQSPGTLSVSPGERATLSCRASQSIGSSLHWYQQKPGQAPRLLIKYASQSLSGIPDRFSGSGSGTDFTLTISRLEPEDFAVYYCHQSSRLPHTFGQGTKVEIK"
label = "n"

[[record]]
binder = "VRDN-02525 (antibody, V domains shown) VH: EVQLVQSGGGLVKPGGSLRLSCAASGFTFSSFAMHWVRQAPGKGLEWISVIDTRGATYYADSVKGRFTISRDNAKNSLYLQMNSLRAEDTAVYYCARLGNFYYGHDVWGQGTTVTVSS VL: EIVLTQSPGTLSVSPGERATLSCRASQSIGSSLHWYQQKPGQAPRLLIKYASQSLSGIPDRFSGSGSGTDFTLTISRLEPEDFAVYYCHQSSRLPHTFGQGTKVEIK"
label = "y"

[[record]]
binder = "VRDN-02565 (antibody, V domains shown) VH: EVQLVQSGGGLVKPGGSLRLSCAASGFTFSSFAMHWVRQAPGKGLEWISVIDTRGATYYADSVKGRFTISRDNAKNSLYLQMNSLRAEDTAVYYCHRLGNFYYHMDVWGQGTTVTVSS VL: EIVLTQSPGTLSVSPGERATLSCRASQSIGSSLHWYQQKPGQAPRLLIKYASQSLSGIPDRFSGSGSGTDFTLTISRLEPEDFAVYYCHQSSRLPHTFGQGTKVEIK"
label = "n"

[[record]]
binder = "VRDN-02506 (antibody, V domains shown) VH: EVQLVQSGGGLVKPGGSLRLSCAASGFTFSHFAMHWVRQAPGKGLEWISVIDTRGATYYADSVKGRFTISRDNAKNSLYLQMNSLRAEDTAVYYCARLGNFYYGMDVWGQGTTVTVSS VL: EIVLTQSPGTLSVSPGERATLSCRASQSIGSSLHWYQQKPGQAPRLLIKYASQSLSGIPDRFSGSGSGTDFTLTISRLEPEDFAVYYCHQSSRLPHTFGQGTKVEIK"
label = "y"

